- tested_target: Jak1 (Homo sapiens)
- Construct: using a recombinant purified GST-tagged catalytic domain for each enzyme; GST; purchased Invitrogen M4290
- Sequence (P23458 875-1153 limits assumed): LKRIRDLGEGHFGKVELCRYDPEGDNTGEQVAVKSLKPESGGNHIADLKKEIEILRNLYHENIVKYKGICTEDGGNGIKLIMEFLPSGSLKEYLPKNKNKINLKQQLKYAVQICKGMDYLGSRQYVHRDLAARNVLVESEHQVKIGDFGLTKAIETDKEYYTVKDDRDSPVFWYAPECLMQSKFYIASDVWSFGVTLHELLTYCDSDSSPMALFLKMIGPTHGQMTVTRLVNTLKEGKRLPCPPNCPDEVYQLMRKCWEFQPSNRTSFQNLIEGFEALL
- test_description: Jak Biochemical HTRF Assay (Jak1)
- test_context: IC50 class, recombinant GST-tagged catalytic domain, read-out: Jak1 activity
- Text: Compounds of formula I can be prepared according to the general procedures described in the Schemes and Examples herein, using appropriate materials. Representative compounds of the present invention are exemplified herein below. […] Those skilled in the art will readily understand that known variations of protecting groups, of reagents, as well as of the conditions and processes of the following preparative procedures, can be used to prepare these compounds. […]
pIC50: −log10 of the molar value.
endpoint_name: pIC50

The following compounds have reported results that may help.
Qu. Find the measured pIC50 of CNC(=O)c1ccc(COC(=O)N2CCC[C@@H]3[C@H]2CCN3c2ncnc3[nH]ccc23)cc1 and report it.
Ans. 6.00 to 7.00

Qu. Output pIC50 of Cn1ncc2cc(CC(=O)N3CCC[C@@H]4[C@H]3CCN4c3ncnc4[nH]ccc34)ccc21
Ans. 6.00 to 7.00

Qu. Return the recorded pIC50 value; entry: O=C(OCCc1cc(F)cc(F)c1)N1CCC[C@@H]2[C@H]1CCN2c1ncnc2[nH]ccc12
Ans. 7.00 to 8.00

Qu. Retrieve pIC50 measured for O=C(c1cccs1)N1CCC[C@@H]2[C@H]1CCN2c1ncnc2[nH]ccc12 and print it.
Ans. 8.00 to 9.00

Next:
Qu. Indicate its recorded pIC50; the compound in question is O=S(=O)(Cc1ccccc1)N1CCC[C@@H]2[C@H]1CCN2c1ncnc2[nH]ccc12 (single isomer, unassigned)
Ans. 7.00 to 8.00

Qu. Name the recorded pIC50 of the item COC(=O)c1ccc(COC(=O)N2CCCC3C2CCN3c2ncnc3[nH]ccc23)cc1 (stereo not shown) in your answer.
Ans. 8.00 to 9.00

Qu. Indicate the recorded pIC50 value for this compound: O=C(c1ncoc1C1CC1)N1CCC[C@@H]2[C@H]1CCN2c1ncnc2[nH]ccc12
Ans. 7.00 to 8.00

----------
Quick reference: IC50 of the listed items.
- tested_target: Jak1 (Homo sapiens)
- Construct: using a recombinant purified GST-tagged catalytic domain for each enzyme; GST; purchased Invitrogen M4290
- test_description: Jak Biochemical HTRF Assay (Jak1)
- test_context: IC50 class, recombinant GST-tagged catalytic domain, read-out: Jak1 activity

Use the examples below as a reference point.
Qu. Kindly indicate its recorded IC50. Item: O=C(C(O)c1ccccc1)N1CCC[C@@H]2[C@H]1CCN2c1ncnc2[nH]ccc12 (stereo partly shown)
Ans. 0.01 to 0.1 µM

Qu. Give me measured IC50, please, for this molecule: O=C(O)c1ccc(CCC(=O)N2CCC[C@@H]3[C@H]2CCN3c2ncnc3[nH]ccc23)cc1
Ans. 0.01 to 0.1 µM

Qu. Return value of IC50 for input O=C(OCCCc1cccnc1)N1CCC[C@@H]2[C@H]1CCN2c1ncnc2[nH]ccc12 , no commentary.
Ans. 0.01 to 0.1 µM

New cases:
Qu. Note IC50 for the molecule shown: O=C(OCc1cccnc1)N1CCC[C@@H]2[C@H]1CCN2c1ncnc2[nH]ccc12
Ans. 0.1 to 1 µM

----------
Some compounds, each annotated with its measured IC50.
- tested_target: Jak1 (Homo sapiens)
- Construct: using a recombinant purified GST-tagged catalytic domain for each enzyme; GST; purchased Invitrogen M4290
- test_description: Jak Biochemical HTRF Assay (Jak1)
- test_context: IC50 class, recombinant GST-tagged catalytic domain, read-out: Jak1 activity
- Description: Compounds of formula I can be prepared according to the general procedures described in the Schemes and Examples herein, using appropriate materials. Representative compounds of the present invention are exemplified herein below. […] Those skilled in the art will readily understand that known variations of protecting groups, of reagents, as well as of the conditions and processes of the following preparative procedures, can be used to prepare these compounds. […]

Recorded IC50, per entry:
Qu. Supply IC50 value. Item: O=C(c1ccco1)N1CCC[C@@H]2[C@H]1CCN2c1ncnc2[nH]ccc12 [Example 29-9]
Ans. 10 to 100 nM

Qu. Specify measured IC50 for O=C(c1cnc2ccccc2c1)N1CCC[C@@H]2[C@H]1CCN2c1ncnc2[nH]ccc12 [Example 29-44] .
Ans. 10 to 100 nM

Qu. Consider the compound CC(Cc1ccccc1)C(=O)N1CCC[C@@H]2[C@H]1CCN2c1ncnc2[nH]ccc12 (some centres unmarked) [Example 29-42] . State its measured IC50.
Ans. 10 to 100 nM

New cases:
Qu. Specify measured IC50 for COC(=O)c1ccc(COC(=O)N2CCC[C@@H]3[C@H]2CCN3c2ncnc3[nH]ccc23)cc1 [Example 4] .
Ans. 1 to 10 nM

Qu. Provide IC50 value for the following compound: O=C(Cn1cc2ccccc2n1)N1CCC[C@@H]2[C@H]1CCN2c1ncnc2[nH]ccc12 [Example 29-54]
Ans. 100 to 1000 nM

Qu. Fill in IC50 for record O=C(OCCN1CCOCC1)N1CCC[C@@H]2[C@H]1CCN2c1ncnc2[nH]ccc12 [Example 3-39]
Ans. 10 to 100 nM

Qu. Given O=C(OCCN1CCCC1)N1CCC[C@@H]2[C@H]1CCN2c1ncnc2[nH]ccc12 [Example 3-40] , respond with its IC50.
Ans. 100 to 1000 nM

Qu. Dear colleague, please send me the reported IC50 for O=C(Cn1cnc2ccccc21)N1CCC[C@@H]2[C@H]1CCN2c1ncnc2[nH]ccc12 [Example 29-53] when you can.
Ans. 100 to 1000 nM
